FYI, the data here is from PubChem BioAssay (Tox21).

- PROCEDURE SUMMARY: qHTS assay to identify small molecule agonists of the AP-1 signaling pathway - cell viability counter screen (AID 1159525); further: nearly all actives have a fitted effect of over 55% in size
- RECORDED CONDITIONS: ME-180 (cervical carcinoma) AP-1-bla cells viability, ATP luminescence, 5 h; series mostly up to 76.8 µM
- Method: National Center for Advancing Translational Sciences [NCATS] NIH Chemical Genomics Center [NCGC] U.S. Environmental Protection Agency [EPA] National Institutes of Environmental Health Sciences [NIEHS] National Toxicology Program [NTP] […] After the plates were read for Beta-Lactamase assay on Envision; 3 ul Cell Titer Glo (Promega) was added to measure the cytotoxicity and the plates were then incubated at RT in dark for 30 min. […] ViewLux data was expressed as relative luminescence units. […]
Inconclusive results are not listed. Active and inactive are the calls of the source. The call rests on the fitted dose curve.
Give your call using only these classes: class 1 (active), class 0 (inactive)

Prompt: # outcome recorded in this test, key = `Cc1cccc(S(=O)(=O)O)c1C`
Completion: class 0

Prompt: Hey, what did the test say about CC(C)(C)C1CCC(CC2=C(O)c3ccccc3C(=O)C2=O)CC1 (stereo not drawn) ?
Completion: class 0

Prompt: Tell me the assay call for `O=C(N/N=C/c1ccccc1O)c1ccncc1` please.
Completion: class 0

Prompt: // return assay outcome for `Cc1cc(O)c(Cl)c(C)c1Cl`
Completion: class 0

Prompt: What outcome does the record of this test show for `COc1ccc(C(=O)/C(Br)=C\C(=O)O)cc1` ?
Completion: class 0

Prompt: Test call for this molecule, please: `Oc1ccc2c(c1)-c1ccccc1C2`
Completion: class 0

Prompt: # fetch the recorded call for `C1CCCC1` here
Completion: class 0

Prompt: # fetch the recorded call for `Fc1ccc(C(c2ccc(F)cc2)N2CCN(C/C=C/c3ccccc3)CC2)cc1` here
Completion: class 0

Prompt: So what was the verdict on `Nc1ccc(N)c2ccccc12` in this test?
Completion: class 1

Prompt: Which outcome was entered for the molecule `Cc1cc(O)c(C(C)(C)C)cc1C(C)(C)C` in this test?
Completion: class 1

Prompt: State the result this test recorded for `CCCC(=O)OC[C@@H](OC(=O)CCC)[C@@H](OC(=O)CCC)[C@H](Cn1c2nc(=O)[nH]c(=O)c-2nc2cc(C)c(C)cc21)OC(=O)CCC` .
Completion: class 0

Prompt: Just curious, what result did CC(C)(C)C(=O)OCOC(=O)C1N2C(=O)CC2S(=O)(=O)C1(C)C (stereo not drawn) get here?
Completion: class 0

Prompt: Lab log entry: `NNc1nc(-c2ccccc2)cs1` — outcome as called in the assay?
Completion: class 0

====

- TARGET DESC: Cytochrome P450 2C9 (Homo sapiens) (UniProt P11712)
- Sequence (P11712 whole entry, looked up): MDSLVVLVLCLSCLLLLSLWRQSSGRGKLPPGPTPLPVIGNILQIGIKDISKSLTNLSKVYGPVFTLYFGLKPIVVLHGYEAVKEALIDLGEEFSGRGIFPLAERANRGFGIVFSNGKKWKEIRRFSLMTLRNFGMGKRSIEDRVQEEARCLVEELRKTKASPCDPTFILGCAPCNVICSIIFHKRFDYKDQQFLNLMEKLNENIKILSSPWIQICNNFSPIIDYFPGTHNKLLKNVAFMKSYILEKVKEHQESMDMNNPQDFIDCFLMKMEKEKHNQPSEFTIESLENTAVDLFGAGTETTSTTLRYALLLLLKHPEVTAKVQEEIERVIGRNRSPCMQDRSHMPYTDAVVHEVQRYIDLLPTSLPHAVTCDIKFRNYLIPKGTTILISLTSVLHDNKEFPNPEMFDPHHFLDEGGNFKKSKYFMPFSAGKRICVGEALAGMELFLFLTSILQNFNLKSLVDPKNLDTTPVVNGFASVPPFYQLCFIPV
- PROCEDURE SUMMARY: Cytochrome P450 Family 2 Subfamily C Member 9 (CYP2C9) small molecule antagonists: luciferase reporter qHTS assay (AID 1671198); further: nearly all actives have a fitted effect of over 50% in size
- RECORDED CONDITIONS: P450-Glo CYP2C9 enzyme assay, luciferin luminescence; series mostly up to 53 µM
Results filed as inconclusive are left out. Activity calls are given as the source filed them. Calls follow the shape of the dose curve; as a rule, active = well fitted inhibition curve with a large enough effect in the repeat runs; inconclusive = weak or mixed curves; inactive = no such curve, though single readings can be large or run the other way.
Output constraint: value belongs to 1 (active), 0 (inactive)

Prompt: Which outcome was assigned to `C=C(C)C(=O)OCC[N+](C)(C)C` in this test?
Completion: 0

Prompt: Entry `CCOc1ccc2nc3cc(N)ccc3c(N)c2c1` : call = ?
Completion: 0

Prompt: Short answer needed: outcome of this test for `Nc1c(Cl)cc(Cl)cc1Cl` ?
Completion: 0

Prompt: Check the results log: what was the call for `Oc1ccc2c(c1)-c1ccccc1C2` ?
Completion: 1

Prompt: Each compound tested received a call. Report the one for `O=CC=C(c1ccccc1)c1ccccc1` .
Completion: 1

Prompt: Hi, do you know how `Cc1cccc2c1cc1ccc3cccc4ccc2c1c34` came out in this test?
Completion: 0

Prompt: Would you mind telling me which call this test gave CC1=C(C(=O)OC(C)C)C(c2cccc([N+](=O)[O-])c2)C(C(=O)OC2CN(C(c3ccccc3)c3ccccc3)C2)=C(N)N1 (stereo not drawn) ?
Completion: 1

Prompt: Which result was noted for this compound in the test: `O=C(OC[C@H]1O[C@@H](OC(=O)c2cc(O)c(O)c(OC(=O)c3cc(O)c(O)c(O)c3)c2)[C@H](OC(=O)c2cc(O)c(O)c(OC(=O)c3cc(O)c(O)c(O)c3)c2)[C@@H](OC(=O)c2cc(O)c(O)c(OC(=O)c3cc(O)c(O)c(O)c3)c2)[C@@H]1OC(=O)c1cc(O)c(O)c(OC(=O)c2cc(O)c(O)c(O)c2)c1)c1cc(O)c(O)c(OC(=O)c2cc(O)c(O)c(O)c2)c1`
Completion: 1

Prompt: I would be grateful if you could indicate the recorded call for `O=C(c1ccc(O)cc1O)c1ccc(O)cc1O` .
Completion: 0

Prompt: Hi, sorry to bother you, what did the test record for `O=C1C=CC(=O)N1` ?
Completion: 0

Prompt: Which result was noted for this compound in the test: `O=C(NO)C1(NS(=O)(=O)c2ccc(Oc3ccc(F)cc3)cc2)CCOCC1`
Completion: 1

Prompt: State the result this test recorded for `O=C1c2ccccc2Cc2ccccc21` .
Completion: 1

Prompt: Recorded test call requested for CCCN(CCC)C(=O)C(CCC(=O)OCCCN1CCN(CCOC(=O)Cc2c(C)n(C(=O)c3ccc(Cl)cc3)c3ccc(OC)cc23)CC1)NC(=O)c1ccccc1 (stereo not drawn)
Completion: 1

Prompt: Field: outcome | Entry: `CCCCCCCCCCC=O`
Completion: 0

Prompt: So what was the verdict on `O=c1[nH]cnc2nc[nH]c12` in this test?
Completion: 0

Prompt: Which outcome did this test record for the compound `CCc1cc(Cc2cc(CC)cc(C(C)(C)C)c2O)c(O)c(C(C)(C)C)c1` ?
Completion: 1

Prompt: How was CC(C)OC(=O)c1cc2c(OCC(O)CNC(C)(C)C)cccc2[nH]1 (stereo not drawn) classified in this test?
Completion: 0

Prompt: Hi team, can someone confirm the assay call for `[Cl][Bi]([Cl])([c]1ccccc1)([c]1ccccc1)[c]1ccccc1` ?
Completion: 1

Prompt: Tell me the assay call for `O=C(Nc1ccc(Oc2ccc(Cl)cc2)c(Cl)c1)c1cc(I)cc(I)c1O` please.
Completion: 1

Prompt: So what was the verdict on `CC1(C)CCC(C)(C)c2cc(C(=O)Nc3ccc(C(=O)O)cc3)ccc21` in this test?
Completion: 1

Prompt: Which outcome was assigned to CCC1OCC(COc2ccc(Oc3ccccc3)cc2)O1 (stereo not drawn) in this test?
Completion: 1

Prompt: Lab log entry: `N/C(=N\N=C\c1ccc(Cl)cc1)N/N=C/c1ccc(Cl)cc1` — outcome as called in the assay?
Completion: 1

Prompt: Just curious, what result did `CN(C)C(=O)C1(N2CCCCC2)CCN(CC[C@@]2(c3ccc(Cl)c(Cl)c3)CN(C(=O)c3ccccc3)CCO2)CC1` get here?
Completion: 1

Prompt: Assay outcome for CCCC(C)c1ccccc1O (stereo not drawn) : what was it?
Completion: 1

Prompt: Per the records of this test, what outcome belongs to `CCN(C(=O)N(CC)c1ccccc1)c1ccccc1` ?
Completion: 1

Prompt: In this assay, the call recorded for `O=C(Oc1ccccc1)c1ccccc1C(=O)Oc1ccccc1` was what?
Completion: 1

Prompt: Entry `COc1cc(-c2ccc(N=C=O)c(OC)c2)ccc1N=C=O` : call = ?
Completion: 0

Prompt: Can you look up the reported call for Cc1cccc(CN2CCN(C(c3ccccc3)c3ccc(Cl)cc3)CC2)c1 (stereo not drawn) for me?
Completion: 1

Prompt: What was the test verdict on `C[C@H]1[C@H]2CC[C@H]3[C@@H]4CC=C5C[C@@H](N(C)C)CC[C@]5(C)[C@H]4CC[C@]23CN1C` ?
Completion: 0

Prompt: Assay outcome for `Cc1cc2c(cc1C(F)(F)F)N(C(=O)Nc1ccc(Oc3cccnc3C)nc1)CC2` : what was it?
Completion: 1

Prompt: Hi, do you know how `CC(C)CCCCCCCCCCCCCCC(=O)O` came out in this test?
Completion: 0

Prompt: For this compound, state the assay outcome: `CCCCCCCC/C=C/CCCCCCCC1=NCCN1CCO`
Completion: 1

Prompt: In this assay, the call recorded for `COc1ccc(-c2ccc3cc(C(=O)O)ccc3c2)cc1C12CC3CC(CC(C3)C1)C2` was what?
Completion: 0

Prompt: Recorded test call requested for `Oc1ccc(N=Nc2ccccc2)cc1`
Completion: 1

Prompt: How was `CCOC(=O)/C=C(C)/C=C/C=C(C)/C=C/c1c(C)cc(OC)c(C)c1C` classified in this test?
Completion: 1

Prompt: # lookup: test call for `CC1=C(/C=C/C(C)=C/C=C/C(C)=C/C=O)C(C)(C)CCC1`
Completion: 1

Prompt: Just curious, what result did `NC(=O)NS(=O)(=O)c1ccc(N)cc1` get here?
Completion: 0

Prompt: Hey, what did the test say about `Fc1ccc([C@@H]2CCNC[C@H]2COc2ccc3c(c2)OCO3)cc1` ?
Completion: 0

Prompt: Short answer needed: outcome of this test for `CCCC(c1cc(C(C)(C)C)c(O)cc1C)c1cc(C(C)(C)C)c(O)cc1C` ?
Completion: 1

Prompt: Called result for `CNC(=O)c1ccccc1`
Completion: 0

Prompt: // outcome(item) with item = CCCCC(CC)CN=C(N)NC(N)=NCCCCCCN=C(N)NC(N)=NCC(CC)CCCC (stereo not drawn)
Completion: 1

Prompt: What outcome does the record of this test show for `CCCCN(CCCC)c1ccc(C(=O)c2ccccc2C(=O)O)c(O)c1` ?
Completion: 1

Prompt: Hey, what did the test say about `CCCN(CCC)c1c([N+](=O)[O-])cc(C(F)(F)F)c(N)c1[N+](=O)[O-]` ?
Completion: 1
